Cited source for all entries: PubChem BioAssay (Tox21)

# protocol: A CellTox Green Cytotoxicity Assay to monitor cytotoxicity in HepG2 cells - 8 hour (AID 1224890); also: nearly all actives have a fitted effect of over 45% in size
# experimentalConditions: CellTox Green fluorescence; series mostly up to 76.8 µM
Results filed as inconclusive are left out. Active and inactive are the calls of the source. Calls follow the shape of the dose curve; as a rule, active = well fitted activation curve with a large enough effect in the repeat runs; inconclusive = weak or mixed curves; inactive = flat fitted curve, though single readings scatter.
Outcomes: yes (1) for active, no (0) for inactive

# compound, assignedClass
rows = [
    ("CCOC(=O)C(C#N)=C(c1ccccc1)c1ccccc1", "no (0)"),
    ("OC1CCCCCCCCCCC1", "yes (1)"),
    ("Nc1ccccc1N", "yes (1)"),
    ("COC(=O)C1=C(C)NC(C)=C(C(=O)OCCN(C)Cc2ccccc2)C1c1cccc([N+](=O)[O-])c1 (configuration not stated)", "no (0)"),
    ("c1ccc2sc(SSN3CCOCC3)nc2c1", "no (0)"),
    ("OC[C@H]1O[C@@H]2O[C@H]3[C@H](O)[C@@H](O)[C@@H](O[C@H]4[C@H](O)[C@@H](O)[C@@H](O[C@H]5[C@H](O)[C@@H](O)[C@@H](O[C@H]6[C@H](O)[C@@H](O)[C@@H](O[C@H]7[C@H](O)[C@@H](O)[C@@H](O[C@H]8[C@H](O)[C@@H](O)[C@@H](O[C@H]1[C@H](O)[C@H]2O)O[C@@H]8CO)O[C@@H]7CO)O[C@@H]6CO)O[C@@H]5CO)O[C@@H]4CO)O[C@@H]3CO", "no (0)"),
    ("Clc1nc(Cl)c(Cl)c(Cl)c1Cl", "no (0)"),
]

---

# protocol: qHTS assay to identify small molecule antagonists of the thyroid receptor (TR) signaling pathway (AID 743065); also: nearly all actives have a fitted effect of over 55% in size
# experimentalConditions: GH3.TRE-Luc, T3-stimulated luciferase inhibition, 23.5 h; series mostly up to 70.3 µM
Results filed as inconclusive are left out. Active and inactive are the calls of the source. Calls come from the whole dose curve; as a rule, active = well fitted inhibition curve with a large enough effect in the repeat runs; inconclusive = weak or mixed curves; inactive = no such curve, though single readings can be large or run the other way.
Possible outcomes: y for active, n for inactive

# molecule, assignedClass
records = [
    ("CCCCC(CC)COC(=O)c1ccc(N(C)C)cc1 (centres undefined)", "n"),
    ("OC(CCl)CCl", "n"),
    ("Clc1nc(Cl)c(Cl)c(Cl)c1Cl", "n"),
    ("CC(C)=CCC/C(C)=C\\CO", "n"),
    ("COC(=O)c1ccccc1", "n"),
    ("OC[C@H]1O[C@@H]2O[C@H]3[C@H](O)[C@@H](O)[C@@H](O[C@H]4[C@H](O)[C@@H](O)[C@@H](O[C@H]5[C@H](O)[C@@H](O)[C@@H](O[C@H]6[C@H](O)[C@@H](O)[C@@H](O[C@H]7[C@H](O)[C@@H](O)[C@@H](O[C@H]8[C@H](O)[C@@H](O)[C@@H](O[C@H]1[C@H](O)[C@H]2O)O[C@@H]8CO)O[C@@H]7CO)O[C@@H]6CO)O[C@@H]5CO)O[C@@H]4CO)O[C@@H]3CO", "n"),
    ("O=C(/C=C/c1ccccc1)OCc1ccccc1", "n"),
    ("CCCCC(CC)COP(=O)(OCC(CC)CCCC)OCC(CC)CCCC (centres undefined)", "n"),
    ("CC(C(=O)O)c1cccc(C(=O)c2ccccc2)c1 (centres undefined)", "n"),
    ("COC(C)COC(C)COC(C)CO (centres undefined)", "n"),
    ("CN1C(C(=O)Nc2ccccn2)=C(O)c2ccccc2S1(=O)=O", "n"),
    ("O=[N+]([O-])c1ccc2c(c1)Cc1ccccc1-2", "n"),
    ("c1ccc2c(c1)Oc1ccccc1S2", "n"),
    ("O=C=Nc1ccc(Cc2ccc(N=C=O)cc2)cc1", "n"),
    ("O=c1oc(=O)c2cc3c(=O)oc(=O)c3cc12", "n"),
    ("CC(=O)CC/C=C(\\C)CCC=C(C)C", "n"),
    ("CCC(C)(O)CCCC(C)C (centres undefined)", "n"),
    ("CCC(C)CO (centres undefined)", "n"),
    ("CC(C)OC=O", "n"),
    ("Cc1ccc(C)c(O)c1C", "n"),
    ("C/C=C/C(=O)O", "n"),
    ("CC(=O)C1(C)CC2=C(CCCC2(C)C)CC1C (centres undefined)", "n"),
    ("Cc1ccc2c(n1)Oc1ccc(C(C)C(=O)OCC(=O)N(C)C)cc1C2 (centres undefined)", "n"),
    ("c1ccc2cc(Nc3ccc(Nc4ccc5ccccc5c4)cc3)ccc2c1", "n"),
    ("O=S(=O)(O)c1ccc(O)cc1", "n"),
    ("CCCCOCCOCCO", "n"),
    ("CC1=CCC(C(C)(C)O)CC1 (centres undefined)", "n"),
    ("O=C(OCc1ccccc1)c1ccccc1O", "n"),
    ("OC1CCCCCCCCCCC1", "n"),
    ("O=CCCCC=O", "n"),
    ("O=P(O)(O)O", "n"),
    ("CCOC(=O)C(C#N)=C(c1ccccc1)c1ccccc1", "n"),
    ("Cc1ccc(C(=O)c2cc(O)c(O)c([N+](=O)[O-])c2)cc1", "y"),
    ("CCCCC(CC)COCC1CO1 (centres undefined)", "n"),
    ("CC(CCC(=O)O)(c1ccc(O)cc1)c1ccc(O)cc1", "n"),
    ("C[Si](C)(C)O[Si](C)(C)C", "n"),
    ("CCCCNS(=O)(=O)c1ccccc1", "n"),
    ("S=C(NC1CCCCC1)NC1CCCCC1", "n"),
    ("CCC(C)OC(=O)c1ccc(O)cc1 (centres undefined)", "n"),
    ("Nc1ccc(Cl)cc1Cl", "n"),
    ("Cc1c(C(N)=O)cc([N+](=O)[O-])cc1[N+](=O)[O-]", "n"),
    ("CCCCOCCOCCOCCO", "n"),
    ("CCC(C)c1ccccc1O (centres undefined)", "n"),
    ("CC(C)OB(OC(C)C)OC(C)C", "n"),
]
